Give measured relative viability for each item. Keep answers brief.
test system: NCI-H727; experiment: relative viability (nuclei count vs DMSO), 5 days (fraction); higher = more cells survive; conditions: first compound 0.001 µM
Reply briefly: the number, and no unit.

Value of measured relative viability for the entry Cc1cn(-c2cc(NC(=O)c3ccc(C)c(Nc4nccc(-c5cccnc5)n4)c3)cc(C(F)(F)F)c2)cn1 [Nilotinib] + NC(=O)Nc1cc(-c2cccc(F)c2)sc1C(=O)N[C@H]1CCCNC1 [AZD7762] (partner 0.2 µM) : 0.574

Value of measured relative viability for the entry Cc1cn(-c2cc(NC(=O)c3ccc(C)c(Nc4nccc(-c5cccnc5)n4)c3)cc(C(F)(F)F)c2)cn1 [Nilotinib] + C[C@]1(O)C[C@@H](c2nc(-c3ccc4ccc(-c5ccccc5)nc4c3)c3c(N)nccn32)C1 [Linsitinib] (partner 1 µM) : 0.225

Value of measured relative viability for the entry Cc1cn(-c2cc(NC(=O)c3ccc(C)c(Nc4nccc(-c5cccnc5)n4)c3)cc(C(F)(F)F)c2)cn1 [Nilotinib] + CC(=O)Nc1cccc(-n2c(=O)n(C3CC3)c(=O)c3c(Nc4ccc(I)cc4F)n(C)c(=O)c(C)c32)c1 [Trametinib] (partner 0.02 µM) : 0.405

Value of measured relative viability for the entry Cc1cn(-c2cc(NC(=O)c3ccc(C)c(Nc4nccc(-c5cccnc5)n4)c3)cc(C(F)(F)F)c2)cn1 [Nilotinib] + O=C(CCCCCCC(=O)Nc1ccccc1)NO [Vorinostat] (partner 1 µM) : 1.12

----------
system: NCI-H1915; assay: relative viability (nuclei count vs DMSO), 5 days (fraction); higher = more cells survive; conditions: first compound 8 µM
endpoint_label: relative viability
Reply briefly: the number, and no unit.

I looked up Nc1cccc2c1CN(C1CCC(=O)NC1=O)C2=O (centres undefined) [Lenalidomide] + Nc1nc2[nH]cc(CCc3ccc(C(=O)N[C@@H](CCC(=O)O)C(=O)O)cc3)c2c(=O)[nH]1 [Pemetrexed] (partner 0.2 µM) and its relative viability for NCI-H1915 was 0.476

I looked up Nc1cccc2c1CN(C1CCC(=O)NC1=O)C2=O (centres undefined) [Lenalidomide] + Cc1nc(NC(=O)N2CCC[C@H]2C(N)=O)sc1-c1ccnc(C(C)(C)C(F)(F)F)c1 [Alpelisib] (partner 2 µM) and its relative viability for NCI-H1915 was 1.07

I looked up Nc1cccc2c1CN(C1CCC(=O)NC1=O)C2=O (centres undefined) [Lenalidomide] + CC(=O)c1c(C)c2cnc(Nc3ccc(N4CCNCC4)cn3)nc2n(C2CCCC2)c1=O [Palbociclib] (partner 0.5 µM) and its relative viability for NCI-H1915 was 0.486

I looked up Nc1cccc2c1CN(C1CCC(=O)NC1=O)C2=O (centres undefined) [Lenalidomide] + CC(=O)Nc1cccc(-n2c(=O)n(C3CC3)c(=O)c3c(Nc4ccc(I)cc4F)n(C)c(=O)c(C)c32)c1 [Trametinib] (partner 0.02 µM) and its relative viability for NCI-H1915 was 0.283

----------
Give measured relative viability for each item. Keep answers brief.
system: LCLC-103H; experiment: relative viability (nuclei count vs DMSO), 5 days (fraction); higher = more cells survive; details: first compound 0.002 µM
Reply briefly: the number, and no unit.

Value of measured relative viability for the entry CCNC(=O)c1noc(-c2cc(C(C)C)c(O)cc2O)c1-c1ccc(CN2CCOCC2)cc1 [Luminespib] + O=C(c1cc(Cc2n[nH]c(=O)c3ccccc23)ccc1F)N1CCN(C(=O)C2CC2)CC1 [Olaparib] (partner 8 µM) : 0.76

Value of measured relative viability for the entry CCNC(=O)c1noc(-c2cc(C(C)C)c(O)cc2O)c1-c1ccc(CN2CCOCC2)cc1 [Luminespib] + Cc1cc(Nc2cc(N3CCN(C)CC3)nc(Sc3ccc(NC(=O)C4CC4)cc3)n2)n[nH]1 [Tozasertib] (partner 0.1 µM) : 0.47

Value of measured relative viability for the entry CCNC(=O)c1noc(-c2cc(C(C)C)c(O)cc2O)c1-c1ccc(CN2CCOCC2)cc1 [Luminespib] + N=C(N)NC(=N)NCCc1ccccc1 [Phenformin] (partner 250 µM) : 0.322

Value of measured relative viability for the entry CCNC(=O)c1noc(-c2cc(C(C)C)c(O)cc2O)c1-c1ccc(CN2CCOCC2)cc1 [Luminespib] + CC(C)C[C@H](NC(=O)[C@H](Cc1ccccc1)NC(=O)c1cnccn1)B(O)O [Bortezomib] (partner 0.002 µM) : 1.07
